The reported numbers originate from ChEMBL document CHEMBL3352379.

target: C3a anaphylatoxin chemotactic receptor (Homo sapiens, UniProt Q16581); experiment: Agonist activity against C3AR in HMDMs assessed as increase in intracellular calcium release by Fluo-3 AM dye based FLIPR assay relative to 1 uM C3a
reported_metric: pEC50
pEC50 (log units): -log10 of the concentration in mol/L.

>  <record_smiles>
Cc1[nH]c(C(c2ccccc2)c2ccccc2)nc1C(=O)N[C@@H](CCCNC(=N)N)C(=O)O

>  <tgt>
C3a anaphylatoxin chemotactic receptor (Homo sapiens, UniProt Q16581)

>  <pEC50>
7.60

$$$$

Could you now consider this next molecule?
// query pEC50 value for entry Cc1c(C(=O)N[C@@H](CCCNC(=N)N)C(=O)O)nc(C(c2ccccc2)c2ccccc2)n1C
7.40

====

Target: C3a anaphylatoxin chemotactic receptor (Homo sapiens)
Sequence (Q16581 whole entry): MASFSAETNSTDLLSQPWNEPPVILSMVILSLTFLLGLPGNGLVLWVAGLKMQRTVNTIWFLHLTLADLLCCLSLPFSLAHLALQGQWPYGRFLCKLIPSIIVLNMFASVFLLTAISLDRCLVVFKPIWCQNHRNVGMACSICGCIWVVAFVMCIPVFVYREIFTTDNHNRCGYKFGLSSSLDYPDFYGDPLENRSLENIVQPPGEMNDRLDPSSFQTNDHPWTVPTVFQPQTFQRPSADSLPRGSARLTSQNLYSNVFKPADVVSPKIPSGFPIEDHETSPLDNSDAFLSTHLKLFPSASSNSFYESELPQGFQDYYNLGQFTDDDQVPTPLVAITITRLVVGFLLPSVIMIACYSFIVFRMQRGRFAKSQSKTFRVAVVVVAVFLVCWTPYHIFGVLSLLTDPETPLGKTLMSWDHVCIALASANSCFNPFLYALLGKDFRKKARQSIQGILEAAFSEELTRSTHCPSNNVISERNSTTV
Experiment: Displacement of [125I]-C3a from C3AR in HMDMs by scintillation counting method
pIC50: −log10 of the molar value.
Rule: pIC50 under 7 gives -1, otherwise 1.

Observe how each entry below is paired with its result.
>  <record_smiles>
N=C(N)NCCC[C@H](NC(=O)c1noc(C(c2ccccc2)c2ccccc2)n1)C(=O)O

>  <category>
1

$$$$
>  <record_smiles>
Cc1[nH]c(C(c2ccccc2)c2ccccc2)nc1C(=O)N[C@@H](CCCNC(=N)N)C(=O)O

>  <category>
1

$$$$
>  <record_smiles>
N=C(N)NCCC[C@H](NC(=O)c1nnc(C(c2ccccc2)c2ccccc2)o1)C(=O)O

>  <category>
-1

$$$$

Check this compound for pIC50 at or above 7: Cc1nc(C(c2ccccc2)c2ccccc2)n(C)c1C(=O)N[C@@H](CCCNC(=N)N)C(=O)O
-1

Check this compound for pIC50 at or above 7: N=C(N)NCCC[C@H](NC(=O)COCC(c1ccccc1)c1ccccc1)C(=O)O
1

Check this compound for pIC50 at or above 7: Cc1oc(C(c2ccccc2)c2ccccc2)nc1C(=O)N[C@@H](CCCNC(=N)N)C(=O)O
1

Check this compound for pIC50 at or above 7: N=C(N)NCCC[C@H](NC(=O)CSCC(c1ccccc1)c1ccccc1)C(=O)O
1

Check this compound for pIC50 at or above 7: Cc1c(C(=O)N[C@@H](CCCNC(=N)N)C(=O)O)nc(C(c2ccccc2)c2ccccc2)n1C
1

Check this compound for pIC50 at or above 7: N=C(N)NCCC[C@H](NC(=O)c1nc(C(c2ccccc2)c2ccccc2)no1)C(=O)O
1

Check this compound for pIC50 at or above 7: N=C(N)NCCC[C@H](NC(=O)c1coc(C(c2ccccc2)c2ccccc2)n1)C(=O)O
1

====

molecular target: UniProtKB Q16581; experiment: Antagonist activity against C3AR in HMDMs assessed as inhibition of C3a-induced intracellular calcium release by Fluo-3 AM dye based FLIPR assay
Field: label. Allowed values: Met (IC50 < 2000 nM) or Not met (IC50 >= 2000 nM).

Observe how each entry below is paired with its result.
>  <record_smiles>
N=C(N)NCCC[C@H](NC(=O)c1nnc(C(c2ccccc2)c2ccccc2)o1)C(=O)O

>  <category>
Not met

$$$$
>  <record_smiles>
N=C(N)NCCC[C@H](NC(=O)COCC(c1ccccc1)c1ccccc1)C(=O)O

>  <category>
Met

$$$$
>  <record_smiles>
N=C(N)NCCC[C@H](NC(=O)c1noc(C(c2ccccc2)c2ccccc2)n1)C(=O)O

>  <category>
Met

$$$$

For N=C(N)NCCC[C@H](NC(=O)c1nc(C(c2ccccc2)c2ccccc2)no1)C(=O)O , is the recorded IC50 below the cut-off of 2000 nM?
Met

For Cc1nc(C(c2ccccc2)c2ccccc2)oc1C(=O)N[C@@H](CCCNC(=N)N)C(=O)O , is the recorded IC50 below the cut-off of 2000 nM?
Not met

====

Biological target: C3a anaphylatoxin chemotactic receptor (Homo sapiens)
Sequence (Q16581 whole entry): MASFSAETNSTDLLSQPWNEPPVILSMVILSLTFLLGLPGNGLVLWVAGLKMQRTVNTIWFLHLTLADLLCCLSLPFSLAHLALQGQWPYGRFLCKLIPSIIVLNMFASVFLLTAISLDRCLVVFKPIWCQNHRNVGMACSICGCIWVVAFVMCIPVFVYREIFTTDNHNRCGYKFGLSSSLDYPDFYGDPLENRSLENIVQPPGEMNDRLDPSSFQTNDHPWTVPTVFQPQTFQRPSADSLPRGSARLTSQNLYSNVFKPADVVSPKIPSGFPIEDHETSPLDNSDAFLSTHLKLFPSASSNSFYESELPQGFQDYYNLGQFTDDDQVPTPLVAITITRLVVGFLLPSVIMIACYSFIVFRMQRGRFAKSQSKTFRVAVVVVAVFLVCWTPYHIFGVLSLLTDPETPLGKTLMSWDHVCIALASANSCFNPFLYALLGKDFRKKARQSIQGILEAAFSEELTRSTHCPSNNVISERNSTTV
Test: Displacement of [125I]-C3a from C3AR in HMDMs by scintillation counting method
Property: pIC50; scope: individual compounds
pIC50 (log units): -log10 of the concentration in mol/L.

Below, 3 compounds whose answers are already recorded.
>  <record_smiles>
N=C(N)NCCC[C@H](NC(=O)CCCC(c1ccccc1)c1ccccc1)C(=O)O

>  <pIC50>
7.02

$$$$
>  <record_smiles>
N=C(N)NCCC[C@H](NC(=O)CNCC(c1ccccc1)c1ccccc1)C(=O)O

>  <pIC50>
6.82

$$$$
>  <record_smiles>
N=C(N)NCCC[C@H](NC(=O)c1oc(C(c2ccccc2)c2ccccc2)nc1-c1ccccc1)C(=O)O

>  <pIC50>
6.96

$$$$

// query pIC50 value for entry N=C(N)NCCC[C@H](NC(=O)c1nc(C(c2ccccc2)c2ccccc2)[nH]c1-c1ccccc1)C(=O)O
7.06

// query pIC50 value for entry Cc1nc(C(c2ccccc2)c2ccccc2)oc1C(=O)N[C@@H](CCCNC(=N)N)C(=O)O
7.00
